system: CdFabK (Clostridioides difficile, UniProt A0A031WIF2)
protocol.details: CdFabK biochemical enzyme assay
Parameters: species or system C. difficile
experimental.parameters: read-out: CdFabK IC50; 150 μM Cro-CoA, 150 μM NADH, 50 nM enzyme

sample.smiles: Cc1ccc2c(c1)[C@H]1CN(C)CC[C@H]1N2C(=O)CSc1nnnn1-c1ccc(Cl)cc1
measurement.units: µM
IC50: 4.15
